// reported Ki per item
- experimental.target: human M4 receptor (Homo sapiens (Human))
- Sequence (P08173 whole entry): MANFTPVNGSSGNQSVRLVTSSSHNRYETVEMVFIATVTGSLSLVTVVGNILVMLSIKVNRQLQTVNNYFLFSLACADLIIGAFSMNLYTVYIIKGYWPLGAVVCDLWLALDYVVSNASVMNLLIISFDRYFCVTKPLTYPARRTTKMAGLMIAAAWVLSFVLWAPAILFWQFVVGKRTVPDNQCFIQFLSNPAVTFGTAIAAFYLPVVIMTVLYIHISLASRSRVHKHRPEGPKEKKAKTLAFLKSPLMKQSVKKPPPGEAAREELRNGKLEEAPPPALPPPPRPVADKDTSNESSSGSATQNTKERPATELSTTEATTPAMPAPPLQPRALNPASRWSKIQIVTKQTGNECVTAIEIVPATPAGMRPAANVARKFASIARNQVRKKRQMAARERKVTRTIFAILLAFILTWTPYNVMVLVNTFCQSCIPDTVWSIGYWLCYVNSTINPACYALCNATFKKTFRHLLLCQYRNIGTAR
- assay.protocol: Radioligand (tritiated N-methylscopolamine) binding assay, M4
- condition: Ki against the M4 receptor; membranes from CHO cells expressing human M4; tritiated N-methylscopolamine 1.5 nM; read-out: Ki
assay.readout: Ki

>>> assay_result("N#Cc1ccc(N2CCC(C(=O)NCCC3CCN(Cc4ccccc4O)CC3)CC2)nc1 [11-26]")
"100 to 1000 nM"
>>> assay_result("O=C(CCC1CCN(Cc2ccccc2)CC1)NC1CCN(c2cccc(OC(F)(F)F)c2)CC1")
"100 to 1000 nM"
>>> assay_result("CN(CCNC(=O)C1CCN(c2cccc(OC(F)(F)F)c2)CC1)[C@H]1CCN(Cc2ccccc2)C1")
"10 to 100 nM"
>>> assay_result("C[C@@H]1CN(c2ncc(C(F)(F)F)cn2)CCN1C(=O)NCCC1CCN(Cc2ccccn2)CC1")
"100 to 1000 nM"
>>> assay_result("C[C@@H]1CN(c2cc(F)c(F)c(F)c2)CCN1C(=O)NCCC1CCN(Cc2cc(F)cc(F)c2)CC1")
"100 to 1000 nM"
>>> assay_result("C[C@@H]1CN(c2ccnc(C(F)(F)F)c2)CCN1C(=O)NCCC1CCN(Cc2ccccc2)CC1")
"10 to 100 nM"
>>> assay_result("C[C@@H]1CN(c2ccc(C#N)cc2F)C[C@H](C)N1C(=O)NCCC1CCN(Cc2ccccc2)CC1")
"< 10 nM"
>>> assay_result("O=C(NCCC1CCN(Cc2cccc3c2OCC3)CC1)C1CCN(c2ccc(OC(F)(F)F)cc2)CC1")
"100 to 1000 nM"
>>> assay_result("O=C(NCCC1(CO)CCN(Cc2ccccc2)CC1)C1CCN(c2cccc(OC(F)(F)F)c2)CC1")
"10 to 100 nM"
>>> assay_result("CC(C)CNC(=O)c1cnc(N2CCN(C(=O)NCCC3CCN(Cc4ccccc4)CC3)[C@H](C)C2)nc1")
"10 to 100 nM"
>>> assay_result("C[C@@H]1CN(c2ncc(F)c(C#N)n2)CCN1C(=O)NCCC1CCN(Cc2ccccc2)CC1")
"100 to 1000 nM"
>>> assay_result("O=C(NCCC1CCN(Cc2ccccc2)CC1)N1CCC(c2ccccc2)CC1")
"100 to 1000 nM"
>>> assay_result("N#Cc1cc(N2CCC(C(=O)NC[C@@H](O)C3CCN(Cc4ccccc4)CC3)CC2)ccc1F")
"< 10 nM"
>>> assay_result("N#Cc1cccc(N2CCN(C(=O)OCCC3CCN(Cc4ccccc4)CC3)CC2)c1")
"100 to 1000 nM"
>>> assay_result("O=C(CCC1CCN(Cc2ccccc2)CC1)NC1CCN(c2ccc(OC(F)(F)F)cc2)CC1")
"100 to 1000 nM"
>>> assay_result("N#Cc1ccc(N2CCC(C(=O)NCCC3CCN(Cc4ccc(O)cc4)CC3)CC2)nc1")
"100 to 1000 nM"
>>> assay_result("C[C@@H]1CN(c2cc(F)c(F)c(F)c2)CCN1C(=O)NCCC1CCN(Cc2ccc(OC(F)(F)F)cc2)CC1")
"100 to 1000 nM"
